Assay Protocol: self-splicing fitness, log relative to wild type (ln ratio); higher = more splicing; Tetrahymena group I intron in knt gene, E. coli kanamycin selection, DiMSum; sequences stand for … in CUCUCU…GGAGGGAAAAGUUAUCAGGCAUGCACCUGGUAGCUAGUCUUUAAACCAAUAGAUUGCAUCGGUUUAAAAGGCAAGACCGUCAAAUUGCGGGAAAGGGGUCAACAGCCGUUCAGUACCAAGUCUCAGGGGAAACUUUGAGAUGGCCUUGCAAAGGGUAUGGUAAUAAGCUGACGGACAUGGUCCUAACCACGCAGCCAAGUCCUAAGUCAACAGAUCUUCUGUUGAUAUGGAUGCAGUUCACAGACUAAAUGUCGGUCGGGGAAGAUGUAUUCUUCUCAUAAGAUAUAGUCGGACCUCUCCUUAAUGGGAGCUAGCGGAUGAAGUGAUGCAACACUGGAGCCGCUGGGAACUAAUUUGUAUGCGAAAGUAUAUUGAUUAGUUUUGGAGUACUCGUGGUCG;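 note: selection with 25 µg/mL kanamycin versus none on LB agar overnight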
Condition Notes: 30 °C
Everything with self-splicing fitness (ln) lower than -3 is FALSE; everything else, including exactly -3, is TRUE.

Could you verify whether the entry CCUCAGCAAUAUUACGACGU shows self-splicing fitness (ln) of no less than -3?
FALSE

What about AACCAGCAAUAUUACGCAUC ?
TRUE

Let us now turn to GCCUAGCAAUAUUACGACCC
TRUE

What about GGAGAGCAAUAUUACGUACG ?
TRUE

Param item: UAACAGCAAUAUUACGCUGU
FALSE

# iterate: GGAGAGCAAUAUUACGCGAG
TRUE

Please give the result for UCUCAGCAAUAUUACGCCGG too.
TRUE

Follow-up entry: AGGGAGCAAUAUUACGUGGA
TRUE

Similarly, UUUUAGCAAUAUUACGUCUG ?
TRUE

Entry to check: CUACAGCAAUAUUACGUGGG
FALSE

For UUGCAGCAAUAUUACGAACC then?
TRUE

Try AUGCAGCAAUAUUACGUGAG next.
TRUE

What do we get for GCUCAGCAAUAUUACGUAUC ?
TRUE

Record: GUCGAGCAAUAUUACGGUGA
TRUE

Can you check AUGGAGCAAUAUUACGUUAG next?
FALSE

# repeat for CAGCAGCAAUAUUACGAGGU
TRUE

Another sequence to look at: AGUCAGCAAUAUUACGCUCG
TRUE

Also check ACUUAGCAAUAUUACGCUUC
TRUE

And UAUGAGCAAUAUUACGUAGU ?
FALSE

Moving on to the next sequence: GCGAAGCAAUAUUACGGAGA
TRUE
